Attribution: patent US6737383B1

Listing: Morningglory plant response rating of selected molecules
tested on: morningglory; test: Test B pre/postemergence morningglory; assay type: in vivo, Ipomoea hederacea; conditions: Rate 125 g/ha; Postemergence; scale 0 to 10, 0 no effect, 10 complete control
# answer = number (no unit)

Answered examples (3):
structure.smiles.string: CCN(C(=O)n1oc(=O)n(-c2ccc(C)cc2C)c1=O)C1CCCCC1
measured.number: 1
//
structure.smiles.string: CCN(C(=O)n1oc(=O)n(-c2c(C)cc(C)cc2C)c1=O)C1CCCCC1
measured.number: 2
//
structure.smiles.string: Cc1ccccc1-n1c(=O)on(C(=O)N(c2ccc(C#N)cc2)C(C)C)c1=O
measured.number: 0

Find the recorded Morningglory plant response rating belonging to `CC(C)N(C(=O)n1oc(=O)n(-c2ccc(OC(F)(F)F)cc2)c1=O)C1=CCOCC1` and report it.
0

----------
Entries annotated with measured Plant response rating, B. signalgrass
test system: surinam grass; assay: Test B pre/postemergence surinam grass; assay type: in vivo, Brachiaria decumbens; settings: Rate 250 g/ha, Postemergence; scale of 0 to 10 where 0 is no effect and 10 is complete control
When you answer, write just the number.

molecule: Cc1cccc(C)c1-n1c(=O)on(C(=O)N(c2ccc(Cl)cc2Cl)C2CCC2)c1=O [Compound 318]
Plant response rating, B. signalgrass: 0

Returns the measured Plant response rating, B. signalgrass for the input molecule. Input: CC(C)N(C(=O)n1oc(=O)n(C2CCC2)c1=O)c1ccccc1 [Compound 348]
4

Sample CC(C)=CCn1c(=O)on(C(=O)N(c2ccc(F)cc2)C(C)C)c1=O [Compound 288] — what was its Plant response rating, B. signalgrass?
0

----------
tested on: pigweed; test: Test B pre/postemergence pigweed; format: in vivo, Amaranthus retroflexus; details: Preemergence, Rate 125 g/ha; scale 0 to 10 (0 no effect, 10 complete control)
property: Plant response rating, Redroot pigweed
Format: numeric value only, no unit, no commentary.

// known answers, use as guide
structure.smiles.string: Cc1ccccc1-n1c(=O)on(C(=O)N(C2=CCOCC2)C(C)C)c1=O
measured.number: 0
--
structure.smiles.string: COc1ccc(-n2c(=O)on(C(=O)N(c3ccc(F)cc3)C(C)C)c2=O)c(C)c1
measured.number: 0

Now look at this one.
Requested read-out: Plant response rating, Redroot pigweed. Entry: `C=CCn1c(=O)on(C(=O)N(c2ccccc2)C(C)C)c1=O`
8

----------
tested on: cocklebur; experiment: Test B pre/postemergence cocklebur; format: in vivo, Xanthium strumarium; details: Rate 500 g/ha, Preemergence; scale 0 to 10 (0 no effect, 10 complete control)
property: Cocklebur plant response rating
Please respond with just the number, no unit label.

compound: COCC(OC)n1c(=O)on(C(=O)N(c2ccc(Cl)cc2)C(C)C)c1=O (stereo not drawn)
target.or.system: cocklebur
Cocklebur plant response rating: 0

compound: COP(=O)(CCn1c(=O)on(C(=O)N(c2ccc(F)cc2F)C(C)C)c1=O)OC
target.or.system: cocklebur
Cocklebur plant response rating: 0

compound: CC(C)N(C(=O)n1oc(=O)n(C(C)C2CCC2)c1=O)c1ccccc1 (stereo not drawn)
target.or.system: cocklebur
Cocklebur plant response rating: 0

compound: CC(C)N(C(=O)n1oc(=O)n(CCC(=O)N(C)C)c1=O)c1ccc(Cl)cc1
target.or.system: cocklebur
Cocklebur plant response rating: 0

compound: C#CCCn1c(=O)on(C(=O)N(c2ccc(F)cc2F)C(C)C)c1=O
target.or.system: cocklebur
Cocklebur plant response rating: 0

--- query ---
Cocklebur plant response rating for `C#CCn1c(=O)on(C(=O)N(c2ccc(F)cc2)C(C)C)c1=O` ?
10

----------
system: corn; assay: Test B pre/postemergence corn; assay type: in vivo, Zea mays; conditions: Rate 500 g/ha, Postemergence; scale 0 to 10, 0 no effect, 10 complete control
property: Plant response rating, Corn
Lab note: write the figure by itself, no unit.

Solved cases (3 shown):
compound: Cc1nsc(Cl)c1Cn1c(=O)on(C(=O)N(c2ccc(F)cc2)C(C)C)c1=O
target.or.system: corn
Plant response rating, Corn: 0
--
compound: CC(C)N(C(=O)n1oc(=O)n(C2CCC2)c1=O)c1ccccc1
target.or.system: corn
Plant response rating, Corn: 3
--
compound: CC(C)N(C(=O)n1oc(=O)n(C2CC3CCC2C3)c1=O)c1ccc(F)cc1F (stereo not shown)
target.or.system: corn
Plant response rating, Corn: 0

Turning to the following compound.
Which value of Plant response rating, Corn has been reported for `CC(C)N(C(=O)n1oc(=O)n(C2CCC2)c1=O)c1ccc(Cl)cc1` in the records?
0

----------
system: velvetleaf; assay: Test B pre/postemergence velvetleaf; format: in vivo, Abutilon theophrasti; details: Postemergence, Rate 250 g/ha; scale 0 to 10, 0 no effect, 10 complete control
# Velvetleaf plant response rating per record follows
When you answer, write just the number.

Some compounds with recorded Velvetleaf plant response rating:
structure.smiles.string: COc1ccc(-n2c(=O)on(C(=O)N(c3ccc(F)cc3)C(C)C)c2=O)c(C)c1
Velvetleaf plant response rating: 0
//
structure.smiles.string: Cc1ccccc1-n1c(=O)on(C(=O)N(c2ccc(F)cc2)C(C)C)c1=O
Velvetleaf plant response rating: 3
//
structure.smiles.string: CC(C)N(C(=O)n1oc(=O)n(-c2ccc(OC(F)(F)F)cc2)c1=O)C1=CCOCC1
Velvetleaf plant response rating: 0

So what does the record say about Velvetleaf plant response rating for `COc1ccc(-n2c(=O)on(C(=O)N(C3=CCOCC3)C(C)C)c2=O)cc1` ?
0

Data request, read-out Velvetleaf plant response rating, for `Cc1cccc(C)c1-n1c(=O)on(C(=O)N(c2ccccc2)C(C)C)c1=O`
0

----------
tested on: sugar beet; assay: Test B pre/postemergence sugar beet; assay type: in vivo, Beta vulgaris; conditions: Preemergence, Rate 500 g/ha; scale of 0 to 10 where 0 is no effect and 10 is complete control
Each entry below carries its reported Sugarbeets plant response rating.
Write the number on its own, no unit after it.

Returns the measured Sugarbeets plant response rating for the input compound. Input: Cc1c(-n2c(=O)on(C(=O)N(c3ccc(F)cc3)C(C)C)c2=O)ccc2ccccc12 [Compound 338]
0

Please look up its Sugarbeets plant response rating: COCn1c(=O)on(C(=O)N(c2ccc(Cl)cc2)C(C)C)c1=O [Compound 533]
7

Consider the compound shown here: CC(C)N(C(=O)n1oc(=O)n(-c2ccc3ccccc3c2)c1=O)c1ccc(F)cc1F [Compound 335] What is its recorded Sugarbeets plant response rating?
0

----------
Collected Barnyardgrass plant response rating values appear next to each entry.
tested on: bamyardgrass; experiment: Test B flood test barnyardgrass; type: in vivo, Echinochloa crus-galli; settings: Rate 250 g/ha; Pre-emergence (flood test species); scale 0 to 10, 0 is no effect, 10 is complete control

Consider the reported Barnyardgrass plant response rating for these compounds:
compound: COC(OC)C(C)n1c(=O)on(C(=O)N(c2ccc(F)cc2F)C(C)C)c1=O (centres unmarked) [Compound 472]
target.or.system: bamyardgrass
result: 0

compound: COC(CCl)n1c(=O)on(C(=O)N(c2ccc(Cl)cc2)C(C)C)c1=O (centres unmarked) [Compound 458]
target.or.system: bamyardgrass
result: 0

compound: CC(=O)OCC(CCl)n1c(=O)on(C(=O)N(c2ccc(F)cc2)C(C)C)c1=O (centres unmarked) [Compound 596]
target.or.system: bamyardgrass
result: 0

compound: CCC(C)n1c(=O)on(C(=O)N(c2ccc(F)cc2)C(C)C)c1=O (centres unmarked) [Compound 613]
target.or.system: bamyardgrass
result: 0

compound: CC(C)N(C(=O)n1oc(=O)n(CC(=O)C2CCC2)c1=O)c1ccccc1 [Compound 641]
target.or.system: bamyardgrass
result: 0

What does the record list as Barnyardgrass plant response rating for CCOC(Cn1c(=O)on(C(=O)N(c2ccccc2)C(C)C)c1=O)OCC [Compound 632] ?
0

Entry under review: CCc1nc(C)c(C(C)n2c(=O)on(C(=O)N(c3ccc(Cl)cc3)C(C)C)c2=O)s1 (centres unmarked) [Compound 590] . Reported Barnyardgrass plant response rating?
0

----------
System: purple nutsedge
Experiment: Test B pre/postemergence purple nutsedge
Type: in vivo, Cyperus rotundus
Conditions: Preemergence, Rate 500 g/ha; scale 0 (no effect) to 10 (complete control)
Description: […] At the same time, these crop and weed species were also treated with postemergence applications of test chemicals formulated in the same manner. […] Treated plants and controls were maintained in a greenhouse for twelve to sixteen days, after which all species were compared to controls and visually evaluated. […]
# Nutsedge plant response rating values compiled below
Form: value (number only, do not type unit).

Below, each entry is followed by its recorded Nutsedge plant response rating result.
structure.smiles.string: Cc1ccccc1-n1c(=O)on(C(=O)N(c2ccc(F)cc2)C(C)C)c1=O
property: Nutsedge plant response rating
measured.number: 0

structure.smiles.string: CC(C)N(C(=O)n1oc(=O)n(-c2ccc(OC(F)(F)F)cc2)c1=O)C1=CCOCC1
property: Nutsedge plant response rating
measured.number: 0

structure.smiles.string: Cc1cccc(C)c1-n1c(=O)on(C(=O)N(c2ccccc2)C(C)C)c1=O
property: Nutsedge plant response rating
measured.number: 0

Which measured Nutsedge plant response rating value corresponds to `CCN(C(=O)n1oc(=O)n(-c2c(C)cc(C)cc2C)c1=O)C1CCCCC1` ?
6

Give its Nutsedge plant response rating value. Item: `Cc1ccccc1-n1c(=O)on(C(=O)N(c2ccc(Cl)cc2)C(C)C)c1=O`
0

Which value of Nutsedge plant response rating has been reported for `Cc1ccccc1-n1c(=O)on(C(=O)N(c2ccc(C#N)cc2)C(C)C)c1=O` in the records?
0
